Recorded values, source the supplement of paper PMC11061612.

Here, each record is paired with measured combination Emax data.
Tested on: SW780 (Bladder Carcinoma)
EXPERIMENTAL PROTOCOL: combination Emax (second highest fraction inhibited in the dose matrix, 72 h); higher = more inhibition; extreme values may be limits of the assay
Form: value (number only, do not type unit).

Request: Find the recorded combination Emax belonging to COc1cccc(OCCCN)c1-c1cc(Nc2cnc(C#N)cn2)n[nH]1 [Prexasertib] + C[C@@H]1COCCN1C2=NC(=NC(=C2)C3(CC3)[S@](=N)(=O)C)C4=C5C=CNC5=NC=C4 [AZD6738] (first compound max 1 µM, 7x7, partner max 10 µM) and report it.
Response: 0.201

Request: Do the same for CN(CCO)CC[C@H](CSc1ccccc1)Nc1ccc(S(=O)(=O)NC(=O)c2ccc(N3CCC([C@@H](O)c4ccccc4-c4ccc(Cl)cc4)CC3)cc2)cc1S(=O)(=O)C(F)(F)F [AZD4320] + Cc1cc2ncnn2cc1Nc1ncc2c(n1)n(C1CCOCC1)c(=O)n2C [AZD7648] (first compound max 1 µM, 7x7, partner max 10 µM) please
Response: 0.484

Request: What about Cc1cc2ncnn2cc1Nc1ncc2c(n1)n(C1CCOCC1)c(=O)n2C [AZD7648] + O=C(c1cc(Cc2n[nH]c(=O)c3ccccc23)ccc1F)N1CCN(C(=O)C2CC2)CC1 [Olaparib] (first compound max 10 µM, 7x7, partner max 10 µM) ?
Response: 0.165

---

System: NALM-6 (B-Lymphoblastic Leukemia)
EXPERIMENTAL PROTOCOL: Bliss excess, mean over the matrix (fraction); higher = more synergy
Each entry below lists one item and its recorded Bliss excess value.
Form rule: numeric answer, no unit written next to it.

Answered cases to consult:
{"COMPOUND": "Cc1cc2ncnn2cc1Nc1ncc2c(n1)n(C1CCOCC1)c(=O)n2C [AZD7648] + C[C@@H]1COCCN1C2=NC(=NC(=C2)C3(CC3)[S@](=N)(=O)C)C4=C5C=CNC5=NC=C4 [AZD6738] (first compound max 10 µM, 7x7, partner max 10 µM)", "EXPERIMENTAL VALUE": -0.0561}
{"COMPOUND": "CC1(C)CCC(CN2CCN(c3ccc(C(=O)NS(=O)(=O)c4ccc(NCC5CCOCC5)c([N+](=O)[O-])c4)c(Oc4cnc5[nH]ccc5c4)c3)CC2)=C(c2ccc(Cl)cc2)C1 [Venetoclax] + CS(=O)(=O)CCNCc1ccc(-c2ccc3ncnc(Nc4ccc(OCc5cccc(F)c5)c(Cl)c4)c3c2)o1 [Lapatinib] (first compound max 1 µM, 7x7, partner max 10 µM)", "EXPERIMENTAL VALUE": 0.0563}
{"COMPOUND": "CN(C)CCCOc1ccc(-c2ccc3ncc4c(c3c2)n(C2CCOCC2)c(=O)n4C)cn1 [AZD0156] + O=C(c1cc(Cc2n[nH]c(=O)c3ccccc23)ccc1F)N1CCN(C(=O)C2CC2)CC1 [Olaparib] (first compound max 3 µM, partner max 3 µM)", "EXPERIMENTAL VALUE": 0.173}
{"COMPOUND": "COc1nnc2ccc(N3CCC(c4ccc(OCCN5CCN(C)C(=O)[C@H]5C)cc4)CC3)nn12 [AZD5153] + CCN(CCO)CCCOc1ccc2c(Nc3cc(CC(=O)Nc4cccc(F)c4)[nH]n3)ncnc2c1 [AZD2811] (first compound max 1 µM, 7x7, partner max 1 µM)", "EXPERIMENTAL VALUE": -0.0683}
{"COMPOUND": "Cc1cc2ncnn2cc1Nc1ncc2c(n1)n(C1CCOCC1)c(=O)n2C [AZD7648] + O=C(c1cc(Cc2n[nH]c(=O)c3ccccc23)ccc1F)N1CCN(C(=O)C2CC2)CC1 [Olaparib] (first compound max 10 µM, 7x7, partner max 10 µM)", "EXPERIMENTAL VALUE": -0.027}
{"COMPOUND": "CCc1c2c(nc3ccc(O)cc13)-c1cc3c(c(=O)n1C2)COC(=O)[C@]3(O)CC [SN-38] + CN(C)CCCOc1ccc(-c2ccc3ncc4c(c3c2)n(C2CCOCC2)c(=O)n4C)cn1 [AZD0156] (first compound max 0.3 µM, 7x7, partner max 1 µM)", "EXPERIMENTAL VALUE": 0.0336}

Okay, next one:
Request: Request the reported Bliss excess associated with CN(CCO)CC[C@H](CSc1ccccc1)Nc1ccc(S(=O)(=O)NC(=O)c2ccc(N3CCC([C@@H](O)c4ccccc4-c4ccc(Cl)cc4)CC3)cc2)cc1S(=O)(=O)C(F)(F)F [AZD4320] + C1CN(CCC1(C(=O)N[C@@H](CCO)C2=CC=C(C=C2)Cl)N)C3=NC=NC4=C3C=CN4 [Capivasertib] (first compound max 1 µM, 7x7, partner max 3 µM)
Response: 0.0091

---

Tested on: KM-H2 (Hodgkin's Lymphoma)
EXPERIMENTAL PROTOCOL: combination Emax (second highest fraction inhibited in the dose matrix, 72 h); higher = more inhibition; extreme values may be limits of the assay
VALUE TYPE: combination Emax
The answer should be written as a number, with no unit following it.

{"MOLECULE": "COc1nnc2ccc(N3CCC(c4ccc(OCCN5CCN(C)C(=O)[C@H]5C)cc4)CC3)nn12 [AZD5153] + C[C@@H]1COCCN1C2=NC(=NC(=C2)C3(CC3)[S@](=N)(=O)C)C4=C5C=CNC5=NC=C4 [AZD6738] (first compound max 1 µM, 7x7, partner max 10 µM)", "VALUE TYPE": "combination Emax", "EXPERIMENTAL VALUE": 0.89}

Now for another entry.
Request: Form field - read-out: combination Emax; system: KM-H2 (Hodgkin's Lymphoma); submitted item: Cc1c2c(nn1C)CSCc1cc(n(C)n1)CSc1cc(c3ccccc3c1)OCCCc1c(C(=O)O)n(C)c3c-2c(Cl)ccc13 [AZD5991] + CCN(CCO)CCCOc1ccc2c(Nc3cc(CC(=O)Nc4cccc(F)c4)[nH]n3)ncnc2c1 [AZD2811] (first compound max 1 µM, 7x7, partner max 1 µM)
Response: 0.271

---

Bliss excess: recorded values
Tested on: NCI-H1694 (Small Cell Lung Carcinoma)
EXPERIMENTAL PROTOCOL: Bliss excess, mean over the matrix (fraction); higher = more synergy
Form rule: numeric answer, no unit written next to it.

{"COMPOUND": "Cc1c2c(nn1C)CSCc1cc(n(C)n1)CSc1cc(c3ccccc3c1)OCCCc1c(C(=O)O)n(C)c3c-2c(Cl)ccc13 [AZD5991] + Cn1cnc2c(F)c(Nc3ccc(Br)cc3Cl)c(C(=O)NOCCO)cc21 [Selumetinib] (first compound max 1 µM, 7x7, partner max 3 µM)", "Bliss excess": -0.0048}
{"COMPOUND": "CN(CCO)CC[C@H](CSc1ccccc1)Nc1ccc(S(=O)(=O)NC(=O)c2ccc(N3CCC([C@@H](O)c4ccccc4-c4ccc(Cl)cc4)CC3)cc2)cc1S(=O)(=O)C(F)(F)F [AZD4320] + Cn1cnc2c(F)c(Nc3ccc(Br)cc3Cl)c(C(=O)NOCCO)cc21 [Selumetinib] (first compound max 1 µM, 7x7, partner max 3 µM)", "Bliss excess": 0.0042}

Request: Field request: Bliss excess | item: CC(=O)c1c(C)c2cnc(Nc3ccc(N4CCNCC4)cn3)nc2n(C2CCCC2)c1=O [Palbociclib] + Cc1c2c(nn1C)CSCc1cc(n(C)n1)CSc1cc(c3ccccc3c1)OCCCc1c(C(=O)O)n(C)c3c-2c(Cl)ccc13 [AZD5991] (first compound max 10 µM, 7x7, partner max 1 µM)
Response: -0.073

---

Form field: Bliss excess (one value per entry).
Test system: SNU-C5 (Colorectal Carcinoma)
EXPERIMENTAL PROTOCOL: Bliss excess, mean over the matrix (fraction); higher = more synergy
Could you respond with only the numeric value?

{"COMPOUND": "CC1(C)CCC(CN2CCN(c3ccc(C(=O)NS(=O)(=O)c4ccc(NCC5CCOCC5)c([N+](=O)[O-])c4)c(Oc4cnc5[nH]ccc5c4)c3)CC2)=C(c2ccc(Cl)cc2)C1 [Venetoclax] + C1CN(CCC1(C(=O)N[C@@H](CCO)C2=CC=C(C=C2)Cl)N)C3=NC=NC4=C3C=CN4 [Capivasertib] (first compound max 1 µM, 7x7, partner max 3 µM)", "VALUE TYPE": "Bliss excess", "EXPERIMENTAL VALUE": -0.0069}
{"COMPOUND": "Cc1c2c(nn1C)CSCc1cc(n(C)n1)CSc1cc(c3ccccc3c1)OCCCc1c(C(=O)O)n(C)c3c-2c(Cl)ccc13 [AZD5991] + C1CN(CCC1(C(=O)N[C@@H](CCO)C2=CC=C(C=C2)Cl)N)C3=NC=NC4=C3C=CN4 [Capivasertib] (first compound max 1 µM, 7x7, partner max 3 µM)", "VALUE TYPE": "Bliss excess", "EXPERIMENTAL VALUE": 0.0007}

// moving on: another record for Bliss excess
Request: Bliss excess for CC(=O)Nc1cccc(-n2c(=O)n(C3CC3)c(=O)c3c(Nc4ccc(I)cc4F)n(C)c(=O)c(C)c32)c1 [Trametinib] + Cc1nc(-c2cn3c(n2)-c2ccc(-c4cnn(C(C)(C)C(N)=O)c4)cc2OCC3)n(C(C)C)n1 [Taselisib] (first compound max 1 µM, 7x7, partner max 10 µM) ?
Response: 0.0951
